The following compounds are shown together with reported melting point values.

Observe how each entry below is paired with its result.
# compound, measurementKind, reportedResult
records = [
    ("CCCCCCOC(=O)C1=C(C)NN=C(CC)C1c1cccc([N+](=O)[O-])c1 (centres undefined)", "melting point", "92 °C"),
    ("CCC(CC)(CCC#N)C(NC(=O)c1ccc(Cl)cc1)Nc1c(Nc2cccnc2)c(=O)c1=O (centres undefined)", "melting point", "242 to 243 °C"),
    ("CN1CCN(c2cccc3ccc(OCc4cccc(Cl)c4)cc23)CC1", "melting point", "67.5 to 68 °C"),
]

stdin: Quick one: melting point for N#Cc1cc(C=O)cc(O)c1O ?
stdout: 210 to 215 °C

* * *

melting point by entry:

stdin: Which value of melting point has been reported for CC(C)Sc1c(C2=NC(C)(C)CO2)oc(Br)c1Br in the records?
stdout: 71 to 72 °C

stdin: So what does the record say about melting point for O=[N+]([O-])C=Cc1cccc(Cl)c1Cl ?
stdout: 89 to 91 °C

stdin: Look up melting point for this molecule: COC(=O)c1cc(C(=O)NCCCCN2CCC(c3ccc4c(c3OC)CCCC4)CC2)ccc1-c1ccc(C(F)(F)F)cc1
stdout: 132 °C

stdin: Query (molecule): CNC(=O)c1cc2c(Oc3ccc(-n4cncn4)cc3)cncc2s1 ; field requested: melting point
stdout: 214 to 215 °C

stdin: # query: melting point of entry COCCSC(F)(F)C(O)(Cn1cncn1)c1ccc(F)cc1F (stereo not drawn)
stdout: 80 to 81 °C

* * *

melting point by entry:

Below, each entry is followed by its recorded melting point result.
# molecule, measurementKind, reportedResult
data = [
    ("CC(C)c1ccccc1N1C(=O)CON(C)C1=S", "melting point", "98 to 101 °C"),
    ("CCCn1c(=Nc2ccccc2)sc2ncccc2c1=O", "melting point", "94 to 95 °C"),
    ("CN(C)C1CCc2[nH]c3cccc(F)c3c2C1 (stereo not drawn)", "melting point", "166 to 168 °C"),
    ("CCOC(=O)c1cnc2c(SC(=O)N(C)C)cccn2c1=O", "melting point", "133 to 134 °C"),
    ("O=C(Nc1ccc(C(=O)N2CCc3cn[nH]c3-c3ncccc32)cc1)c1ccccc1-c1ccccc1", "melting point", "250 to 251 °C"),
]

stdin: GET /values?readout=melting point&item= CCCCCCCCCCCC(=O)N[C@@H](C)C(=O)N[C@H](CCC(=O)O)C(N)=O
stdout: 163 °C

* * *

// reported melting point per item

stdin: Name the recorded melting point for CC(=O)c1ccc2c(=O)c(Br)c(C)oc2c1 .
stdout: 124 °C

stdin: Can you share its melting point? I mean this molecule: Nc1nc(Cl)cc(NCC2(CO)COC2)n1
stdout: 185 to 186 °C

stdin: Fill in: melting point of O=c1[nH]c2ccccc2c(=O)cc1NCCO is ___
stdout: 207 °C

stdin: I am curious: what melting point value has been reported for COC(=O)CC1(CC(=O)N2CCN(C(=O)CC3=C(C(=O)OC)[C@H](c4c(Cl)cccc4Cl)C(C(=O)OC)=C(C[S@](=O)c4ccccc4)N3)CC2)CCCC1 ?
stdout: 100 to 104 °C

stdin: Field request: melting point | item: CCS(=O)(=O)c1ccc(C(=O)O)c(Cl)c1Cl
stdout: 170 to 172 °C

stdin: Returns the measured melting point for the input molecule. Input: CCOCc1nc2c(N)nc3ccccc3c2n1NCCCNC(=O)C1CCCC1
stdout: 75 to 77 °C

stdin: Which melting point is listed for CN(C)CCc1ccc(O)c2[nH]ncc12 ?
stdout: 223 to 227 °C

stdin: Quick check: melting point of CC(=O)OCCCC1Oc2c(C)c(C)c(OC(C)=O)c(C)c2S1 (centres undefined) ?
stdout: 78 to 79 °C

stdin: Given the entry CC1(C)CCC(C)(C)c2cc(C(=O)Nc3ccccc3)ccc21 , report its measured melting point.
stdout: 144 to 146 °C

stdin: Given the molecule CCCc1c(OCc2nnn[nH]2)ccc(C(=O)c2ccccc2O)c1O , what is its reported melting point?
stdout: 186 to 187 °C

stdin: What melting point value was documented for this molecule, CN=C(NC)Nc1nc(CSCCNC2=NS(=O)(=O)N=C2NC)cs1 ?
stdout: 132 to 137 °C

stdin: // melting point lookup, key: Cn1c2ccccc2c(=O)c2c(Br)cccc21
stdout: 219 to 221 °C

stdin: Using the record for CCOc1ccc(-c2cc(Nc3ccc(OC)c(Cl)c3)nc(NC(C)=O)n2)cc1 , report its melting point.
stdout: 214 °C

stdin: # input molecule: CC(Oc1ccc2nc(NC(=O)CCCN3CCOCC3)sc2c1)c1c(Cl)ccc(F)c1Cl (centres undefined) ; wanted: its melting point
stdout: 141 to 145 °C

* * *

Reported melting point values follow for various compounds

Look over these answered cases.
# compound, melting point
measured = [
    ("O=C1COC[C@@H](c2cccc(F)c2)N1", "119 to 121 °C"),
    ("Cc1nn(CC(F)(F)COC(=O)N(C)C)c(-c2ccc(F)cc2)c1-c1ccc2c(c1)NC(=O)CO2", "146 °C"),
    ("C=Cc1cc(C(C)NC(=O)C#Cc2ccc(C(C)(C)C)cc2)cc(F)c1NS(C)(=O)=O (centres undefined)", "108 to 110 °C"),
    ("NCCc1c2n(c3ccccc13)C(=O)CCC2", "110 to 111 °C"),
    ("Cc1[nH]c2ccc(CCO)cc2c1C(=O)OCc1ccccc1", "170 to 172 °C"),
]

stdin: What does the data say about its melting point? Entry: CCOC1CC2(C)C(CCC3C4CC=C(C(C)=O)C4(C)CC(=O)C32)CC1O (centres undefined)
stdout: 89 to 91 °C

* * *

measurementKind: melting point

# molecule, melting point
records = [
    ("COc1c(Br)cc(Br)c(OC)c1C(=O)O", "108 to 110 °C"),
    ("CCN1C(=O)C(Cl)(Cl)c2cc3sccc3cc21", "143 to 144 °C"),
    ("CC(C)Cc1ccc2c(c1O)C(=O)c1ccc(CC(C)C)c(O)c1C2=O", "188 °C"),
]

Now turn to the next molecule.
stdin: What measured melting point goes with CC(=O)NCC1CCN(CC2COc3ccccc3O2)CC1 (centres undefined) ?
stdout: 138 °C

* * *

measurementKind: melting point

Check out these entries, answers already filled in.
# compound, measurementKind, reportedResult
measured = [
    ("O=P(O)(O)C(c1ccc2cc(O)ccc2c1)P(O)(O)=S (centres undefined)", "melting point", "210 to 211 °C"),
    ("OCc1cc2cc(O)c(Cl)c(Cl)c2s1", "melting point", "167 to 169 °C"),
    ("CCCCOC(=O)c1ccc(C(F)(F)F)cc1Cl", "melting point", "90 °C"),
]

stdin: Please give the measured melting point for this compound: CNc1nc(-c2ccccc2)c(-c2nc3ccccc3c(=O)n2-c2ccc(Cl)cc2)s1
stdout: > 275 °C

* * *

Consider the following compounds and their measured melting point readings.

A selection of reference data follows.
# compound, reportedResult
rows = [
    ("COC(=O)C1CN2c3c(cc(F)c(OS(C)(=O)=O)c3CCN2C)C1=O (stereo not drawn)", "247 to 250 °C"),
    ("FC(F)C(F)(F)Sc1nc(-c2ccco2)c(-c2ccco2)[nH]1", "166 to 167 °C"),
    ("CN(C(=O)c1ccc2nonc2c1)C1CCSCC1", "155 to 156 °C"),
]

stdin: Can you look up the measured melting point of COc1ccc(C(=O)Nc2ccccc2)cc1NC(=S)Nc1cccc(C(=O)O)c1 for me?
stdout: 196 to 197 °C

stdin: For Cc1ccc2c(c1)CC1(CCC(=O)CC1)C21OCCO1 , what is its reported melting point?
stdout: 124 to 127 °C

stdin: Look up melting point: Cn1cc(C2=C(c3c4n(c5ccccc35)CCC(CNC=O)C4)C(=O)NC2=O)c2ccccc21 (stereo not drawn)
stdout: 332 to 334 °C

stdin: State the recorded melting point for this entry: COc1ccc(CCC(=O)Nc2c(C)c(C)c3c(c2C)C(c2ccc(C(C)C)cc2)C(C)(C)O3)cc1 (stereo not drawn)
stdout: 188 to 191 °C

stdin: Give the measured melting point of OC(CCc1ccc(Br)cc1)Cn1ccnc1 (stereo not drawn) .
stdout: 121 to 122 °C

stdin: Look up melting point for this compound: COCCOC/C(=C\S(=O)(=O)c1ccccc1)C(=O)OC(C)(C)C
stdout: 46 to 48 °C

stdin: Consider the compound O=C(NC/C=C\COc1cc(CN2CCCCC2)ccn1)c1ccc(Cl)s1 and give its measured melting point.
stdout: 75 to 77 °C

stdin: I am curious: what melting point value has been reported for COC(=O)C(C)Oc1cccc2cccnc12 (stereo not drawn) ?
stdout: 70 to 72 °C

stdin: Reported melting point for Cc1nc(-c2cc(C)c(OCCCc3cccnc3)c(C)c2)no1 : what is it?
stdout: 46 to 49 °C

stdin: Please give the measured melting point for this compound: CC(CCCc1ccccc1)c1cc(O)c2c3c(c(=O)oc2c1)CCC(=O)C3 (stereo not drawn)
stdout: 163 to 164 °C
